Provide the reported kinase still bound, per cent of control of each item.
# Assay Target: UniProt Q8IYT8
# Sequence (Q8IYT8 whole entry, looked up): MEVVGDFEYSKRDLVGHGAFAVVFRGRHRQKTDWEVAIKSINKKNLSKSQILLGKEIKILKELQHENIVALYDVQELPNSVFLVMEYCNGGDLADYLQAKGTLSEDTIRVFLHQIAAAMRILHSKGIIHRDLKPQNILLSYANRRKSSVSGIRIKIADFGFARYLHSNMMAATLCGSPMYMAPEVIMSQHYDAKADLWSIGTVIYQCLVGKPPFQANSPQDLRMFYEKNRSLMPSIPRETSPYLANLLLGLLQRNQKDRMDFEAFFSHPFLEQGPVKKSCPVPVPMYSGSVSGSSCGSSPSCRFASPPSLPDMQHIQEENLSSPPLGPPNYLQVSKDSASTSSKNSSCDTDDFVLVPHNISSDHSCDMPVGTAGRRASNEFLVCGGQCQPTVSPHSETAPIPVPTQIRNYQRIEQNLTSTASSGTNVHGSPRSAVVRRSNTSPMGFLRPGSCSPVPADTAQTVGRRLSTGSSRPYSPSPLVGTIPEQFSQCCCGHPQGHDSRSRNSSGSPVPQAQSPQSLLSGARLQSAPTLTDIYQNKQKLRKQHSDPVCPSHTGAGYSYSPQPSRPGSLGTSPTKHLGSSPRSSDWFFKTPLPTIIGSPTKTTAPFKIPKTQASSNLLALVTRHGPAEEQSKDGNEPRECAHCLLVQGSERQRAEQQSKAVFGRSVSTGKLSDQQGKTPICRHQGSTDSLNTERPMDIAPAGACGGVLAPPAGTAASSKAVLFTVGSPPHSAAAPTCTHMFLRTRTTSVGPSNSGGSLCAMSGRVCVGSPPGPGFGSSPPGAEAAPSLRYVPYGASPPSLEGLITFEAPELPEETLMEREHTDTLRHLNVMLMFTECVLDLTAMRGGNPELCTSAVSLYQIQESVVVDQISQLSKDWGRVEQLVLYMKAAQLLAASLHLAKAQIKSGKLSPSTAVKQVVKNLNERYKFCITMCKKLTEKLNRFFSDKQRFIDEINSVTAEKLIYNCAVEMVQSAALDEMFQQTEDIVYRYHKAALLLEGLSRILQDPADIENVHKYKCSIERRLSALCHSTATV
# Assay Remarks: KINOMEscan competition binding
# Run Parameters: compound 10.0 µM

Record COc1cc(N2CCN(C)CC2)ccc1Nc1ncc2c(n1)N(C)c1ccccc1C(=O)N2C , field kinase still bound, per cent of control: 0.5%

Okay, here is my list. What is kinase still bound, per cent of control for each of these?
1. C[C@@H](Oc1cc(-c2cnn(C3CCNCC3)c2)cnc1N)c1c(Cl)ccc(F)c1Cl
2. CCN(CC)CCCCNc1ncc2c(n1)N(C)C(=O)N(c1c(Cl)c(OC)cc(OC)c1Cl)C2

Reply:
["4.7%", "100%"]

# return kinase still bound, per cent of control for each item in the list
1. C=CC(=O)Nc1cc(-n2c(=O)ccc3cnc4ccc(-c5cn[nH]c5)cc4c32)ccc1C
2. CCN1CCN(C(=O)Cc2ccc(Nc3ncc(F)c(Nc4ccc(C(=O)Nc5ccccc5Cl)cc4)n3)cc2)CC1

Reply:
81%
77%

// each molecule listed below needs its kinase still bound, per cent of control
1. COCC(=O)NC/C=C/c1ccc2ncnc(Nc3ccc(Oc4ccc(C)nc4)c(C)c3)c2c1
2. Cc1n[nH]c2ccc(-c3cncc(OC[C@@H](N)Cc4c[nH]c5ccccc45)c3)cc12
3. O=C1NC(=O)/C(=C/c2ccc3nccc(-c4ccncc4)c3c2)S1
4. CS(=O)(=O)N1CCN(Cc2cc3nc(-c4cccc5[nH]ncc45)nc(N4CCOCC4)c3s2)CC1

Reply:
1. 100%
2. 12%
3. 65%
4. 100%

Parameters: items (list). Returns: kinase still bound, per cent of control for each item.
1. CN(C)C/C=C/C(=O)Nc1ccc(C(=O)Nc2cccc(Nc3nccc(-c4cccnc4)n3)c2)cc1
2. CNC(=O)c1ccc(Nc2cc(Nc3ccccc3S(=O)(=O)C(C)C)c3cc[nH]c3n2)nc1
3. O=c1cc(N2CCOCC2)oc2c(-c3cccc4c3sc3ccccc34)cccc12
4. COc1cc(C(=O)N2CCC(N3CCN(C)CC3)CC2)ccc1Nc1ncc2c(n1)N(C)c1ccccc1C(=O)N2C
5. O=C(Nc1cccc(Nc2ncc(Br)c(NCCc3cnc[nH]3)n2)c1)N1CCCC1
6. N#CCNC(=O)c1ccc(-c2ccnc(Nc3ccc(N4CCOCC4)cc3)n2)cc1
7. COc1cc2ncnc(-n3nc(-c4ccccn4)nc3N)c2cc1OC
8. COc1ccc(N(C(=O)Oc2c(C)cccc2C)c2ccnc(Nc3ccc(N4CCN(C)CC4)cc3)n2)c(OC)c1

Reply:
1. 99%
2. 9.1%
3. 98%
4. 67%
5. 0.3%
6. 60%
7. 3%
8. 38%

Hey, quick one: what's kinase still bound, per cent of control for each of these?
1. C=CC(=O)Nc1ccc(CN(C(=O)Nc2c(Cl)c(OC)cc(OC)c2Cl)c2cc(Nc3ccc(N4CCN(C)CC4)cc3)ncn2)cc1
2. NC(=O)Nc1cc(-c2cccc(F)c2)sc1C(=O)N[C@@H]1CCCNC1
3. CNC(=O)c1cc(Oc2ccc(NC(=O)Nc3ccc(Cl)c(C(F)(F)F)c3)cc2)ccn1

Reply:
1. 100%
2. 0%
3. 89%
